meta.source: patent US20240294488A1

# Run Description: Solubility screen of methylone hydrochloride in solvents
# Format: physicochemical
# Condition Summary: organic solvent or mixture, thermodynamic from solid; Acetone, room temperature, visual
Structures can show the parent of a compound that is named as a salt.
Assay Endpoint: solubility

Task: Consider the molecule shown here: CNC(C)C(=O)c1ccc2c(c1)OCO2 (racemic) [(rac)-Methylone Hydrochloride] What is its recorded solubility?
Output: < 1000 µg/mL

----------
# Run Description: Solubility screen of methylone hydrochloride in solvents
# Format: physicochemical
# Condition Summary: organic solvent or mixture, thermodynamic from solid; THF, room temperature, visual
Where a name gives a salt, the structure may show the parent alone.
Assay Endpoint: solubility

Task: Can you look up the measured solubility of CNC(C)C(=O)c1ccc2c(c1)OCO2 (racemic) [(rac)-Methylone Hydrochloride] for me?
Output: < 1000 µg/mL

----------
# Run Description: Metabolic stability in human liver microsomes
# Assay type: in vitro ADME
# Condition Summary: pooled liver microsomes, pH 7.4; human liver microsomes 0.5 mg/mL, 1 μM compound, NADPH, 0-45 min
Counter-ions that a name gives are not always drawn.
Classification by microsomal CLint at 1 μM follows these ranges: band A (below 7 µL/min/mg), band B (7 µL/min/mg to below 9 µL/min/mg), band C (9 µL/min/mg or more)

As a guide, the following entries are already answered.
Compound	Assigned Category
Cl.[2H]C([2H])([2H])N[C@H](C)C(=O)c1ccc2c(c1)OCO2 [(R)-Methylone-d3 hydrochloride]	band A
Cl.[2H]C([2H])([2H])NC(C)C(=O)c1ccc2c(c1)OCO2 (racemic) [(rac)-Methylone-d3 hydrochloride]	band B
Cl.[2H]C([2H])([2H])N[C@@H](C)C(=O)c1ccc2c(c1)OCO2 [(S)-Methylone-d3 hydrochloride]	band C
Cl.[2H]C1([2H])Oc2ccc(C(=O)[C@H](C)NC)cc2O1 [(S)-Methylone-d2 hydrochloride]	band C
CN[C@@H](C)C(=O)c1ccc2c(c1)OCO2 [(S)-Methylone Hydrochloride]	band C

Task: Lab note: which band did Cl.[2H]C1([2H])Oc2ccc(C(=O)C(C)NC)cc2O1 (racemic) [(rac)-Methylone-d2 hydrochloride] land in?
Output: band C

Task: Bin this entry: Cl.[2H]C([2H])([2H])NC(C)C(=O)c1ccc2c(c1)OC([2H])([2H])O2 (racemic) [(rac)-Methylone-d5 hydrochloride]
Output: band B

Task: Classify this compound: Cl.[2H]C([2H])([2H])N[C@H](C)C(=O)c1ccc2c(c1)OC([2H])([2H])O2 [(R)-Methylone-d5 hydrochloride]
Output: band A

----------
# Run Description: Solubility screen of methylone hydrochloride in solvents
# Type: physicochemical
# Condition Summary: water, thermodynamic from solid; H2O, room temperature, visual
Where a name gives a salt, the structure may show the parent alone.
Assay Endpoint: solubility (mg/mL)
Numbers only, in mg/mL.

Task: Can you share its solubility? I mean this compound: CNC(C)C(=O)c1ccc2c(c1)OCO2 (racemic) [(rac)-Methylone Hydrochloride]
Output: 47

----------
# Run Description: Solubility screen of methylone hydrochloride in solvents
# Format: physicochemical
# Condition Summary: methanol, organic solvent or mixture, thermodynamic from solid; MeOH, room temperature, visual
Structures can show the parent of a compound that is named as a salt.
Assay Endpoint: solubility

Task: Look up solubility for this molecule: CNC(C)C(=O)c1ccc2c(c1)OCO2 (racemic) [(rac)-Methylone Hydrochloride]
Output: 48 mg/mL
